The origin of these recorded values is ChEMBL document CHEMBL4400549.

// inhibition lookup, one value per entry
target: Autoinducer-2 kinase (Salmonella typhimurium (strain LT2 / SGSC1412 / ATCC 700720)) (UniProt Q8ZKQ6); experiment: Inhibition of Salmonella typhimurium LsrK expressed in Escherichia coli MET1158 at 200 uM using (S)-DPD as substrate after 15 mins by Kinase Glo luminescence assay relative to control; settings: Salmonella enterica subsp. enterica serovar Typhimurium
Sequence (Q8ZKQ6 whole entry): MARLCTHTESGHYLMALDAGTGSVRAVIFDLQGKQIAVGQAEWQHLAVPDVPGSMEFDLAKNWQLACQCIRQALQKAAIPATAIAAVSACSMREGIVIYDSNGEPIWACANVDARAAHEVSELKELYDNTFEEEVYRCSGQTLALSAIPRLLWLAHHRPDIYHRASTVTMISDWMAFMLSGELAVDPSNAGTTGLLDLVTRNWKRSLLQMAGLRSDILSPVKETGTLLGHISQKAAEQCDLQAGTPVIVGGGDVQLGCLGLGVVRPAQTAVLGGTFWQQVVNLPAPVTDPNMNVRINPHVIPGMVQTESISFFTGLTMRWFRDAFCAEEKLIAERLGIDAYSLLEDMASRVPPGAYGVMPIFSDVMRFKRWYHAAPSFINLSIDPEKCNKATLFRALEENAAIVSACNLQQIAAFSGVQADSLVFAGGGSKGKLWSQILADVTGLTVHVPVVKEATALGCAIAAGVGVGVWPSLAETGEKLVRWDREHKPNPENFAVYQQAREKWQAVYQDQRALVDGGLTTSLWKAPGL
# number only, unit % dropped from output

Use the examples below as a reference point.
> print(dat)
                                   compound    endpoint  unit.tag  recorded.result
1  CCCc1nc(-c2cccs2)cc(C(O)CO)n1 (centres undefined)  inhibition         %             47.8
2  OCC(O)c1cc(-c2cccs2)nc(-c2cccc(F)c2)n1 (centres undefined)  inhibition         %             19.8
3  c1c(C2CCCC2)n[nH]c1C1COC2(CCCCC2)O1 (centres undefined)  inhibition         %                0

Please give the measured inhibition for this compound: Cc1cccc(-c2cc(C3COC4(CCCCC4)O3)n(C)n2)c1 (centres undefined) 1.07
